B1: ZNF8 (parent)
chain: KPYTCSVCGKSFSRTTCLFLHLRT

- Variants of: B1
- protocol notes: protein stability index of a GFP-peptide fusion (GPS, HEK-293T) (PSI 1-6); higher = more stable;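 further: lentivirally expressed fusions sorted by FACS into six bins by GFP to DsRed ratio, PSI derived from sequencing read proportions per bin multiplied by bin number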
- recorded conditions: c terminus: a fixed tail appended
Label rule, in plain words: protein stability index of 2 and up is Y, under 2 is N.

[
  {
    "changes": "T24P",
    "label class": "Y"
  },
  {
    "changes": "G9F",
    "label class": "Y"
  },
  {
    "changes": "Y3S",
    "label class": "N"
  },
  {
    "changes": "V7G",
    "label class": "Y"
  },
  {
    "changes": "T4M",
    "label class": "N"
  },
  {
    "changes": "K10C",
    "label class": "N"
  },
  {
    "changes": "L20D",
    "label class": "Y"
  },
  {
    "changes": "H21N",
    "label class": "N"
  },
  {
    "changes": "V7F",
    "label class": "Y"
  },
  {
    "changes": "S6N",
    "label class": "Y"
  },
  {
    "changes": "C8L",
    "label class": "Y"
  },
  {
    "changes": "V7L",
    "label class": "Y"
  },
  {
    "changes": "P2S",
    "label class": "Y"
  },
  {
    "changes": "K1S",
    "label class": "N"
  },
  {
    "changes": "S11K",
    "label class": "Y"
  },
  {
    "changes": "T4N",
    "label class": "N"
  },
  {
    "changes": "T15H",
    "label class": "N"
  },
  {
    "changes": "Y3K",
    "label class": "N"
  },
  {
    "changes": "L18P",
    "label class": "Y"
  },
  {
    "changes": "L22K",
    "label class": "Y"
  },
  {
    "changes": "C17S",
    "label class": "N"
  }
]
